system: human SMAD7 mRNA; assay: Antisense inhibition of human SMAD7 mRNA expression in Hep3B cells by 3-10-3 cEt gapmers, 10,000 nM, electroporation (Example 2); assay type: cell-based; settings: Hep3B cells, electroporation with 10,000 nM antisense oligonucleotide, approximately 24 hours, SMAD7 mRNA by RT-PCR (RTS5062), relative to untreated control cells
Strand notation (5' to 3'): a small letter for the sugar, then the base; units joined by * are phosphorothioate-linked, units joined directly phosphodiester-linked; [ ] holds rarer units or linkages, { } end groups; capitals alone tell only the bases. k = constrained ethyl (cEt); [5mC] = 5-methylcytosine; d = 2'-deoxy (DNA)
Each entry gets not met if its % Inhibition stays under 50%, and met if its % Inhibition is 50% or above.

State whether the measured % Inhibition reaches 50%, counting equality as reaching it, for 800065 (antisense kT*kT*kA*dA*dG*dT*dA*dG*d[5mC]*dA*dG*d[5mC]*d[5mC]*kA*kG*kT) [compound 800065]
met

State whether the measured % Inhibition reaches 50%, counting equality as reaching it, for 830173 (antisense kA*kG*kA*dG*dG*dT*dG*dT*dT*dT*d[5mC]*d[5mC]*dA*kA*kG*kG) [compound 830173]
not met

State whether the measured % Inhibition reaches 50%, counting equality as reaching it, for 799432 (antisense kT*kG*kA*d[5mC]*dA*dG*d[5mC]*d[5mC]*dA*d[5mC]*dA*dA*dG*kT*k[5mC]*kA) [compound 799432]
not met

State whether the measured % Inhibition reaches 50%, counting equality as reaching it, for 830035 (antisense kA*kT*kT*dG*dG*d[5mC]*dT*dG*dA*dT*d[5mC]*dT*dG*kG*kA*kG) [compound 830035]
not met

State whether the measured % Inhibition reaches 50%, counting equality as reaching it, for 799470 (antisense kA*kA*kA*dA*dG*d[5mC]*dT*d[5mC]*d[5mC]*dG*d[5mC]*dA*dT*kA*kG*kA) [compound 799470]
not met

State whether the measured % Inhibition reaches 50%, counting equality as reaching it, for 830044 (k[5mC]*kG*kA*dT*dT*dG*dG*d[5mC]*dA*dG*dG*dT*dT*kA*kA*kT; antisense) [compound 830044]
met

----------
For each of the substances below, state its Full length oligonucleotide, Ileum.
assay: Oligonucleotide concentration in tissues by LC-MS/MS after subcutaneous administration in beagle dogs (Example 8); type: in vivo; settings: 30 mg/kg subcutaneous, 48 hours after the last dose, ileum
Include the unit right after the number.

# get_value(readout='Full length oligonucleotide, Ileum', item= 790615 (CCAATGAGAATGCTTC; 3-10-3 cEt gapmer, further chemistry not given here) [compound 790615] )
18 µg/g

# get_value(readout='Full length oligonucleotide, Ileum', item= 829994 (GGAGGCAGGGCCGCGA; 3-10-3 cEt gapmer, further chemistry not given here) [compound 829994] )
12 µg/g

# get_value(readout='Full length oligonucleotide, Ileum', item= 830025 (antisense TTTGTAAATCGAAAGC; 3-10-3 cEt gapmer, further chemistry not given here) [compound 830025] )
41 µg/g

# get_value(readout='Full length oligonucleotide, Ileum', item= 830037 (antisense CTATTGGCTGATCTGG; 3-10-3 cEt gapmer, further chemistry not given here) [compound 830037] )
67 µg/g

# get_value(readout='Full length oligonucleotide, Ileum', item= 798781 (CGTAAGATTCACAGCA; 3-10-3 cEt gapmer, further chemistry not given here) [compound 798781] )
177 µg/g

# get_value(readout='Full length oligonucleotide, Ileum', item= 830121 (AGAATCAAGCCCTGGC; 3-10-3 cEt gapmer, further chemistry not given here) [compound 830121] )
26 µg/g
